// reported Kd per item
Molecular target: human TYK2 (JH2domain-pseudokinase) (Homo sapiens (Human), UniProt P29597)
Sequence (P29597 556-888): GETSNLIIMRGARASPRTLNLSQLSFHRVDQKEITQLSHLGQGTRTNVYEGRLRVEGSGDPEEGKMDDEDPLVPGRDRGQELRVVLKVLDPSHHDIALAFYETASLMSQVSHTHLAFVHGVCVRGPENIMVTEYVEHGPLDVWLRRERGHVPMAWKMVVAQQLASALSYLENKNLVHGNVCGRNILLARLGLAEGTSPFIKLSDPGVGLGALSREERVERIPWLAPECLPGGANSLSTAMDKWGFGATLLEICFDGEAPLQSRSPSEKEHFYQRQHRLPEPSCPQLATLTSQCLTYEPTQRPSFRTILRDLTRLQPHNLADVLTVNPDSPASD
Assay: TYK2 JH2 Domain Binding Assay (KINOMEscan)

compound=CNc1cc(Nc2cccn(C3CCN(CCF)CC3)c2=O)nc2c(C(=O)NC3CC3)cnn12 recorded_result="< 0.2 nM"
compound=CNc1cc(Nc2cccn([C@H]3CC[C@@H](N4CCOCC4)CC3)c2=O)nc2c(C(=O)NC3CCC3)cnn12 recorded_result="< 0.2 nM"
compound=[2H]C([2H])([2H])Oc1ncc(C)cc1Nc1cc(NC)n2ncc(C(=O)N[C@H]3C[C@H]3F)c2n1 recorded_result="< 0.2 nM"
compound=CNc1cc(Nc2cccn(-c3cnc(C(C)(C)O)cn3)c2=O)nc2c(C(N)=O)cnn12 recorded_result="< 0.2 nM"
compound=CNc1cc(Nc2cccn([C@@H]3C[C@H]3F)c2=O)nc2c(C(=O)NC3CC3)cnn12 recorded_result="< 0.2 nM"
compound=CNc1cc(Nc2cccnc2C(C)(F)F)nc2c(C(=O)NC3CCC3)cnn12 recorded_result="0.2 to 1 nM"
compound=CNc1cc(Nc2cccn(C3CC4(COC4)C3)c2=O)nc2c(C(=O)N[C@@H]3CC[C@@H]3O)cnn12 recorded_result="0.2 to 1 nM"
compound=CNc1cc(Nc2cccn(C(C)C)c2=O)nc2c(C(=O)N[C@@H]3CCC[C@@]3(C)O)cnn12 recorded_result="< 0.2 nM"
compound=CNc1cc(Nc2cccc([C@H]3CCCOC3)n2)nc2c(C(=O)N[C@@H]3CC[C@H]3O)cnn12 recorded_result="< 0.2 nM"
compound="CNc1cc(Nc2cc(Cl)cn(C3CCCOC3)c2=O)nc2c(C(=O)NC3CC3)cnn12 (stereo not shown)" recorded_result="< 0.2 nM"

Prompt line: What value of measured Kd is listed for "CNc1cc(Nc2cccc(N3CCCC3)n2)nc2c(C(=O)NC3CC3)cnn12" ?
Response line: 0.2 to 1 nM

Prompt line: What value of measured Kd is listed for "CNc1cc(Nc2cccn(C(C)C)c2=O)nc2c(C(=O)N[C@H]3CCC[C@H](O)C3)cnn12" ?
Response line: < 0.2 nM

Prompt line: What value of measured Kd is listed for "CNc1cc(Nc2cc(Cl)cn([C@H]3CCCOC3)c2=O)nc2c(C(=O)N[C@H]3[C@@H]4COC[C@@H]43)cnn12" ?
Response line: 0.2 to 1 nM
